// data source = patent US20250145608A1

System: NCI-H358 cells
assayRemarks: NCI-H358 CTG proliferation assay (120 h) (NSCLC, G12C)
Assay type: cell-based
experimentalParameters: Homo sapiens, assay 1, read-out: H358 (assay 1) IC50
I'd appreciate it if you marked entries Met when IC50 is lower than 300 nM and Not met when it is not.

Here's what some known entries look like.
compound	category
CC(C)C(C(=O)N1C[C@H](O)C[C@H]1C(=O)NCc1ccc(-n2ccnc2)cc1)c1cc(OCCCCN2CCCN(c3nccc(-c4noc([C@@]5(C)CCCc6sc(N)c(C#N)c65)n4)n3)[C@@H](C)C2)no1 (some centres unmarked)	Not met
Cc1ncsc1-c1ccc(CNC(=O)[C@@H]2C[C@@H](O)CN2C(=O)C(c2cc(OCCCCN3CCCN(c4nccc(-c5cc([C@@]6(C)CCCc7sc(N)c(C#N)c76)on5)n4)[C@@H](C)C3)no2)C(C)C)cc1 (some centres unmarked)	Not met
Cc1ncsc1-c1ccc(CNC(=O)[C@@H]2C[C@@H](O)CN2C(=O)C(c2cc(OCCCCN3CCCN(c4nccc(-c5noc([C@@]6(C)CCCc7sc(N)c(C#N)c76)n5)n4)[C@@H](C)C3)no2)C(C)C)cc1 (some centres unmarked)	Met
Cc1cc(CNC(=O)[C@@H]2C[C@@H](O)CN2C(=O)C(c2cc(OCCCCN3CCCN(c4nccc(-c5noc([C@@]6(C)CCCc7sc(N)c(C#N)c76)n5)n4)[C@@H](C)C3)no2)C(C)C)ccc1-c1scnc1C (some centres unmarked)	Met

Okay, next one:
Task item: # strict comparison: is reported IC50 < 300 nM? input = Cc1ncsc1-c1ccc(CNC(=O)[C@@H]2C[C@@H](O)CN2C(=O)C(c2cc(OCCCCN3CCCN(c4nccc(-c5cc([C@@]6(C)CCCc7sc(N)c(C#N)c76)sn5)n4)[C@@H](C)C3)no2)C(C)C)cc1 (some centres unmarked)
Reply: Not met
